# Test system: MGC 803 (human gastric cancer cell)
# ASSAY_PROCEDURE: Solid tumor cell growth inhibition, MTT, 72 h (Example 7)
# Format: cell-based
# EXPERIMENTAL_SETUP: Homo sapiens
Please use the following IC50 ranges when assigning a class: Low = under 2 µg/mL, Mid = from 2 µg/mL up to 3 µg/mL, High = 3 µg/mL and over

Entry COc1ccc2cc1Oc1ccc(cc1)C[C@H]1c3cc(c(OC)cc3CCN1C)Oc1c(OC)c(OC)c(CSc3ccccc3)c3c1[C@H](C2)N(C)CC3 [BS-TE-421] belongs to which category?
High

Category of COc1ccc2cc1Oc1ccc(cc1)C[C@H]1c3cc(c(OC)cc3CCN1C)Oc1c(OC)c(OC)c(COC(=O)c3ccccc3)c3c1[C@H](C2)N(C)CC3 [BS-TE-224] , please.
Mid

Band assignment needed for COc1ccc2cc1Oc1ccc(cc1)C[C@H]1c3cc(c(OC)cc3CCN1C)Oc1c(OC)c(OC)c(COCCn3ccnc3)c3c1[C@H](C2)N(C)CC3 [BS-TE-418] please.
High

Into which bin does this compound go? COc1ccc2cc1Oc1ccc(cc1)C[C@H]1c3cc(c(OC)cc3CCN1C)Oc1c(OC)c(OC)c(CNc3nccs3)c3c1[C@H](C2)N(C)CC3 [BS-TE-320]
Low

Which bin, given its IC50, does COc1ccc2cc1Oc1ccc(cc1)C[C@H]1c3cc(c(OC)cc3CCN1C)Oc1c(OC)c(OC)c(COCC3CCOC3)c3c1[C@H](C2)N(C)CC3 (some centres unmarked) [BS-TE-417] occupy?
High

In plain terms, what class is COc1ccc2cc1Oc1ccc(cc1)C[C@H]1c3cc(c(OC)cc3CCN1C)Oc1c(OC)c(OC)c(CN3CCCC3)c3c1[C@H](C2)N(C)CC3 [BS-TE-305] ?
Low

Tag the class for CCOCc1c2c3c(c(OC)c1OC)Oc1cc4c(cc1OC)CCN(C)[C@H]4Cc1ccc(cc1)Oc1cc(ccc1OC)C[C@@H]3N(C)CC2 [BS-TE-419]
High

In plain terms, what class is COc1ccc2cc1Oc1ccc(cc1)C[C@H]1c3cc(c(OC)cc3CCN1C)Oc1c(OC)c(OC)c(COCc3ccsc3)c3c1[C@H](C2)N(C)CC3 [BS-TE-415] ?
Low

Band of COc1ccc2cc1Oc1ccc(cc1)C[C@H]1c3cc(c(OC)cc3CCN1C)Oc1c(OC)c(OC)c(COCc3ccc(F)cc3)c3c1[C@H](C2)N(C)CC3 [BS-TE-408] ?
Mid

Consider COc1ccc2cc1Oc1ccc(cc1)C[C@H]1c3cc(c(OC)cc3CCN1C)Oc1c(OC)c(OC)c(CNCc3cccs3)c3c1[C@H](C2)N(C)CC3 [BS-TE-359] . To which IC50 class does it belong?
Low

Kindly identify the class of COc1ccc2cc1Oc1ccc(cc1)C[C@H]1c3cc(c(OC)cc3CCN1C)Oc1c(OC)c(OC)c(CNC(C)C)c3c1[C@H](C2)N(C)CC3 [BS-TE-311] .
High

Bin? COc1ccc2cc1Oc1ccc(cc1)C[C@H]1c3cc(c(OC)cc3CCN1C)Oc1c(OC)c(OC)c(COCc3cccnc3)c3c1[C@H](C2)N(C)CC3 [BS-TE-411]
Mid

FYI, the data here is from patent US9133207B2.
